Target: SIK1 kinase (aa1-303, Thermo Fisher) (Homo sapiens, UniProt P57059)
Construct: SIK1 kinase (aa1-303, Thermo Fisher); purchased Thermo Fisher
Sequence (P57059 1-303): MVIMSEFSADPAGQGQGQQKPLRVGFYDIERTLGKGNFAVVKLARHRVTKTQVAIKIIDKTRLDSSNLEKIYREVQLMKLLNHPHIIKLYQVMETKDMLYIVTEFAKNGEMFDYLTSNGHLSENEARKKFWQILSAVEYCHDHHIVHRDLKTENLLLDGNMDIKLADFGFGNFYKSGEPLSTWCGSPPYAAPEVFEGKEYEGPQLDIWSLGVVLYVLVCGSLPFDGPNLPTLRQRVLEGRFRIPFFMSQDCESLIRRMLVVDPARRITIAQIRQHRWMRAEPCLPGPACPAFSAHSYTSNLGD
Assay: Biochemical activities determination for SIK1 protein (TR-FRET)
Settings: 110 uM ATP, 0.5 μM STK1 substrate
Property Label: IC50 (nM)

[A] O=C1c2c(cc(-c3coc4cc(-c5cnn(C6CCOC6)c5)ccc34)cc2OC(F)F)CCN1CC(F)(F)F (centres unmarked) [Compound 40]
[B] COc1cc(-c2coc3cc(-c4cnn(C5CCOCC5)c4)ccc23)cc2c1C(=O)N(CC(F)(F)F)CC2 [Compound 50]
## Task From the recorded data, which exceeds the other in IC50: A or B ? Lab note: record the label of whichever item you select.
## Result A

* * *

Molecular target: SIK2 kinase (full length, Thermo Fisher) (Homo sapiens, UniProt Q9H0K1)
Construct: SIK2 kinase (full length, Thermo Fisher); purchased Thermo Fisher
Sequence (Q9H0K1 whole entry): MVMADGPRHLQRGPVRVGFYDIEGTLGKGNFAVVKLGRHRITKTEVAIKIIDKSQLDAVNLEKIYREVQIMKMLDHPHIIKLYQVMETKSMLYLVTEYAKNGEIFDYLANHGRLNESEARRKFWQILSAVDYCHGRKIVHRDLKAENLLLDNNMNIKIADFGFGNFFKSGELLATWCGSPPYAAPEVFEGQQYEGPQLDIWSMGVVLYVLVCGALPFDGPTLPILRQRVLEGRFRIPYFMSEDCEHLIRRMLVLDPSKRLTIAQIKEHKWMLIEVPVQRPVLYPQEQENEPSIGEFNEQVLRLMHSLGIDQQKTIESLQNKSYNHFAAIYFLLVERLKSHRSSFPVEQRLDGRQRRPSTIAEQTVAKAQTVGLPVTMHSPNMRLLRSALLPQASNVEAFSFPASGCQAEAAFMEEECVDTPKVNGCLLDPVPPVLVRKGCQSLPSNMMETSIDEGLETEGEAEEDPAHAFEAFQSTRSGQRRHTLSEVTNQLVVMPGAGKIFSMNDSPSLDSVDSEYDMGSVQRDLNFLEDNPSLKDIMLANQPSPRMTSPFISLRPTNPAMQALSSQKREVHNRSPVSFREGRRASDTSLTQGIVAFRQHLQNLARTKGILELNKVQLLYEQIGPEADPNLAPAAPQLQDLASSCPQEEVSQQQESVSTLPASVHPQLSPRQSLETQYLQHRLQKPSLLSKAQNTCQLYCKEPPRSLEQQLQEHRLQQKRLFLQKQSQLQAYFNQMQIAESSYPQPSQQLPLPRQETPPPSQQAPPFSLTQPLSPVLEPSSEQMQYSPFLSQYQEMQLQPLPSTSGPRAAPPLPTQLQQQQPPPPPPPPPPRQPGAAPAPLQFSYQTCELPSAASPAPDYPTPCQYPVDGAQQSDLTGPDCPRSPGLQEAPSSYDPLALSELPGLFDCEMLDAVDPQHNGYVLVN
Test: Biochemical activities determination for SIK2 protein (TR-FRET)
Details: 80 uM ATP, 0.5 μM substrate
Property Label: IC50 (nM)

Reference set, count: 4
>  <Structure Smiles String>
COc1cc(-c2coc3cc(OCCN4CCCC4)ccc23)cc(OC(F)F)c1C(=O)NCC#N

>  <IC50 / nM>
58

$$$$
>  <Structure Smiles String>
COc1cc(-c2coc3cc(-c4cnn(C)c4)ccc23)cc2c1C(=O)N(CC(F)(F)F)CC2

>  <IC50 / nM>
10

$$$$
>  <Structure Smiles String>
COc1cc(-c2coc3cc(-c4cnn(C)c4)ccc23)cc(OC(F)F)c1C(=O)NCC(F)(F)F

>  <IC50 / nM>
15

$$$$
>  <Structure Smiles String>
COc1cc(-c2coc3cc(OCCCN4CCCCC4)ccc23)cc(OC(F)F)c1C(=O)N[C@@H]1C[C@@H]1F

>  <IC50 / nM>
9

$$$$

[P] COc1cc(-c2coc3cc(-c4cn(C)nc4OC)ccc23)cc2c1C(=O)N(CC(F)(F)F)CC2
[Q] COc1cc(-c2coc3cc(-c4cnn(C5CN(CCC#N)C5)c4)ccc23)cc2c1C(=O)N(CC(F)(F)F)CC2
[R] COc1ccc(-c2ccc3c(-c4cc5c(c(OC)c4)C(=O)N(CC(F)(F)F)CC5)coc3c2)cn1
## Task I would appreciate it if you could sort these 3 compounds by IC50, starting from the smallest number. Give the labels in the order requested.
## Result Q, P, R
(Q: 6.9 nM, P: 80 nM, R: 296 nM)

* * *

Biological target: SIK1 kinase (aa1-303, Thermo Fisher) (Homo sapiens, UniProt P57059)
Construct: SIK1 kinase (aa1-303, Thermo Fisher); purchased Thermo Fisher
Test: Biochemical activities determination for SIK1 protein (TR-FRET)
Conditions: 110 uM ATP, 0.5 μM STK1 substrate
Property Label: IC50 (nM)

[1] COc1cc(-c2coc3cc(-c4cnn(C)c4)ccc23)cc(OC(F)F)c1C(=O)N[C@@H]1C[C@@H]1F [Compound 26]
[2] COc1cc(-c2coc3cc(-c4cnn(C)c4)c(F)cc23)cc2c1C(=O)N(CC(F)(F)F)CC2 [Example 12]
## Task // compare: 1 vs 2 , metric IC50, want the smaller Reply briefly: the label of your chosen item.
## Result 1

* * *

Molecular target: SIK3 kinase (aa59-365, Thermo Fisher) (Homo sapiens)
Construct: SIK3 kinase (aa59-365, Thermo Fisher); purchased Thermo Fisher
Assay: Biochemical activities determination for SIK3 protein (TR-FRET)
Settings: 125 uM ATP, 0.5 μM STK1 substrate
Experimental: 3. Biochemical Activities Determination for SIK3 Protein Compounds were tested for inhibition of SIK3 kinase (aa59-365, Thermo Fisher) in assays based on the time-resolved fluorescence-resonance energy transfer (TR-FRET) methodology. […] Plates were sealed and incubated at room temperature for overnight, and the TR-FRET signals (ratio of fluorescence emission at 665 nm over emission at 620 nm with excitation at 337 nm wavelength) were recorded on a PHERAstar FS plate reader (BMG Labtech). […]
Property Label: IC50 (nM)

>  <Compound>
COc1cc(-c2coc3cc(OCCN4CCCC4)ccc23)cc(OC(F)F)c1C(=O)NCC#N

>  <Target Entity>
SIK3 kinase (aa59-365, Thermo Fisher) (Homo sapiens)

>  <IC50 / nM>
132

$$$$
>  <Compound>
COc1cc(-c2coc3cc(OCCN4CCCCC4)ccc23)cc2c1C(=O)N(CC(F)(F)F)CC2

>  <Target Entity>
SIK3 kinase (aa59-365, Thermo Fisher) (Homo sapiens)

>  <IC50 / nM>
415

$$$$
>  <Compound>
Cn1cc(-c2ccc3c(-c4cc5c(c(OC(F)F)c4)C(=O)N(CC(N)=O)CC5)coc3c2)cn1

>  <Target Entity>
SIK3 kinase (aa59-365, Thermo Fisher) (Homo sapiens)

>  <IC50 / nM>
320

$$$$
>  <Compound>
COc1cc(-c2coc3cc(OCCN4CCCC4)ccc23)cc(OC(F)F)c1C(=O)N[C@H]1CCCC[C@H]1O

>  <Target Entity>
SIK3 kinase (aa59-365, Thermo Fisher) (Homo sapiens)

>  <IC50 / nM>
2490

$$$$
>  <Compound>
COc1cc(-c2coc3cc(-c4cn(C)nc4OC)ccc23)cc2c1C(=O)N(CC(F)(F)F)CC2

>  <Target Entity>
SIK3 kinase (aa59-365, Thermo Fisher) (Homo sapiens)

>  <IC50 / nM>
132

$$$$
>  <Compound>
COc1cc(-c2coc3cc(OCCN4CCCC4)ccc23)cc(OC(F)F)c1C(=O)NC1CCC1

>  <Target Entity>
SIK3 kinase (aa59-365, Thermo Fisher) (Homo sapiens)

>  <IC50 / nM>
683

$$$$
>  <Compound>
COc1cc(-c2coc3cc(OCCN4CCC[C@H]4C)ccc23)cc(OC(F)F)c1C(=O)N[C@@H]1C[C@@H]1F

>  <Target Entity>
SIK3 kinase (aa59-365, Thermo Fisher) (Homo sapiens)

>  <IC50 / nM>
80

$$$$
>  <Compound>
N#CCCN1CC(n2cc(-c3ccc4c(-c5cc6c(c(OC(F)F)c5)C(=O)N(CC(F)(F)F)CC6)coc4c3)cn2)C1

>  <Target Entity>
SIK3 kinase (aa59-365, Thermo Fisher) (Homo sapiens)

>  <IC50 / nM>
28

$$$$

[1] COc1cc(-c2coc3cc(OCCN4CCCC4)ccc23)cc(OC(F)F)c1C(=O)NC1CCCC1
[2] COc1cc(-c2coc3cc(-c4cnnc(C)c4)ccc23)cc2c1C(=O)N(CC(F)(F)F)CC2
[3] COc1cc(-c2coc3cc(OCc4cncn4C)ccc23)cc2c1C(=O)N(CC(F)(F)F)CC2
## Task Ordering criterion: IC50; begin with the maximum. Your answer should be the labels, listed in the requested order.
## Result 1, 3, 2

[A] CN1CC[C@@H](COc2cc(-c3coc4cc(OCCN5CCCC5)ccc34)cc(OC(F)F)c2C(=O)NC2CC2)C1
[B] COc1cc(-c2coc3cc(OCCN4CCC[C@@H]4C)ccc23)cc(OC(F)F)c1C(=O)N[C@@H]1C[C@@H]1F
## Task Hi there! Just curious which has the higher IC50 between A and B . Give the label under which the chosen entry appears.
## Result A

[A] CN1CCC(n2cc(-c3ccc4c(-c5cc6c(c(OC(F)F)c5)C(=O)N(CC(F)(F)F)CC6)coc4c3)cn2)C1 (stereo not drawn)
[B] Cn1cc(-c2ccc3c(-c4ccc(C#N)cc4)coc3c2)cn1
[C] O=C(NC1CC1)c1c(OC(F)F)cc(-c2coc3cc(OCCN4CCCC4)ccc23)cc1OC1CC1
[D] COc1cc(-c2coc3cc(-c4cnn(C)c4)ccc23)cc2c1C(=O)N(CC(F)(F)F)CC2
[E] COc1cc(-c2coc3cc(-c4cnn(C)c4)c(F)cc23)cc2c1C(=O)N(CC(F)(F)F)CC2
## Task // smallest IC50 at index 0, largest at the end Order the labels as requested and list them.
## Result D, A, E, B, C

[P] COc1cc(-c2coc3cc(OCCN4CC[C@H](F)C4)ccc23)cc(OC(F)F)c1C(=O)N[C@@H]1C[C@@H]1F
[Q] COc1cc(-c2coc3cc(-c4cnn(C5CCN(C)CC5)c4)ccc23)cc(OC(F)F)c1C(=O)N[C@@H]1C[C@@H]1F
[R] COc1cc(-c2coc3cc(-c4cn(C)nc4C#N)ccc23)cc2c1C(=O)N(CC(F)(F)F)CC2
[S] O=C(NC1CC1)c1c(OC(F)F)cc(-c2coc3cc(OCCN4CCCC4)ccc23)cc1OC(F)F
## Task Arrange by IC50, high to low. # respond with the labels, arranged in the requested order
## Result S, R, P, Q
(S: 506 nM, R: 237 nM, P: 34 nM, Q: 4.1 nM)

* * *

Target: SIK3 kinase (aa59-365, Thermo Fisher) (Homo sapiens, UniProt Q9Y2K2)
Construct: SIK3 kinase (aa59-365, Thermo Fisher); purchased Thermo Fisher
Sequence (Q9Y2K2 59-365): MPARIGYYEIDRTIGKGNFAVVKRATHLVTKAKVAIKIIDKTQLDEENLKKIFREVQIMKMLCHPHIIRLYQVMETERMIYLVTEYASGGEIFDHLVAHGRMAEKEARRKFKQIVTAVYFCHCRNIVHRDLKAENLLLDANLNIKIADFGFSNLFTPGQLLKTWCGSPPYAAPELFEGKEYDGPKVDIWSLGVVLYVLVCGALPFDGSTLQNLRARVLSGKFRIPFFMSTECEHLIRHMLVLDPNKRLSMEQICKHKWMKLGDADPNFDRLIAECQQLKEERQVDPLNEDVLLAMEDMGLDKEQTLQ
Experiment: Biochemical activities determination for SIK3 protein (TR-FRET)
Details: 125 uM ATP, 0.5 μM STK1 substrate
Experimental: 3. Biochemical Activities Determination for SIK3 Protein Compounds were tested for inhibition of SIK3 kinase (aa59-365, Thermo Fisher) in assays based on the time-resolved fluorescence-resonance energy transfer (TR-FRET) methodology. […] Plates were sealed and incubated at room temperature for overnight, and the TR-FRET signals (ratio of fluorescence emission at 665 nm over emission at 620 nm with excitation at 337 nm wavelength) were recorded on a PHERAstar FS plate reader (BMG Labtech). […]
Property Label: IC50 (nM)

>  <Compound>
COc1cc(-c2coc3cc(OCCN4CCC[C@H](C)C4)ccc23)cc(OC(F)F)c1C(=O)N[C@@H]1C[C@@H]1F [Compound 88]

>  <Endpoint Unit>
nM

>  <IC50>
68

$$$$
>  <Compound>
O=C(NC1CC1)c1c(OCCO)cc(-c2coc3cc(OCCN4CCCC4)ccc23)cc1OC(F)F [Compound 103]

>  <Endpoint Unit>
nM

>  <IC50>
410

$$$$
>  <Compound>
O=C(NC1CC1)c1c(F)cc(-c2coc3cc(OCCN4CCCC4)ccc23)cc1OC(F)F [Compound 105]

>  <Endpoint Unit>
nM

>  <IC50>
1770

$$$$

[a] COc1cc(-c2coc3cc(-c4cn(C)nc4C)ccc23)cc2c1C(=O)N(CC(F)(F)F)CC2 [Compound 15]
[b] COc1cc(-c2coc3cc(OCCN4CC[C@@H](C)C4)ccc23)cc(OC(F)F)c1C(=O)N[C@@H]1C[C@@H]1F [Compound 78]
[c] CN1CC[C@H](Oc2cc(-c3coc4cc(OCCN5CCCC5)ccc34)cc(OC(F)F)c2C(=O)NC2CC2)C1 [Compound 111]
## Task Please list these compounds in decreasing order of IC50. In plain terms: list the labels in the order you were asked to.
## Result c, a, b

[1] COc1cc(-c2coc3cc(OCCN4CCCC4)ccc23)cc(OC(F)F)c1C(=O)NC1CCCCC1N (racemic) [Compound 124]
[2] Cn1cc(-c2ccc3c(-c4cc5c(c(OC(F)F)c4)C(=O)N(CC#N)CC5)coc3c2)cn1 [Compound 21]
[3] COc1cc(-c2coc3cc(-c4cnn(C)c4)ccc23)cc(OC(F)F)c1C(=O)N[C@@H]1C[C@@H]1F [Compound 26]
[4] COc1cc(-c2coc3cc(OCCCN4CCCC4)ccc23)cc(OC(F)F)c1C(=O)N[C@@H]1C[C@@H]1F [Compound 72]
[5] COc1cc(-c2coc3cc(-c4cn(C)nc4Cl)ccc23)cc2c1C(=O)N(CC(F)(F)F)CC2 [Compound 23]
## Task Place the items in sequence of falling IC50. Please list each label once, in the requested order.
## Result 5, 1, 4, 2, 3

[A] NC1CCN(c2cccc3ccc(-c4coc5cc(OCCN6CCOCC6)ccc45)nc23)CC1 [Compound 134]
[B] CCn1cc(-c2ccc3c(-c4cc5c(c(OC)c4)C(=O)N(CC(F)(F)F)CC5)coc3c2)cn1 [Example 2]
## Task Sorting by IC50 in descending order, would A or B appear first? Answer by stating the label of the chosen item.
## Result A
(A: 156 nM, B: 28 nM)

[I] COc1cc(-c2coc3cc(OCCN4CCCC4)ccc23)cc(OC(F)F)c1C(=O)NC1CC1 [Compound 62]
[II] CN1CCC(n2cc(-c3ccc4c(-c5cc6c(c(OC(F)F)c5)C(=O)N(CC#N)CC6)coc4c3)cn2)C1 (centres unmarked) [Compound 56]
[III] COc1cc(-c2coc3cc(OCCN4CCCC4)ccc23)cc2c1C(=O)N(CC#N)CC2 [Compound 65]
[IV] COc1cc(-c2coc3cc(OCCN4CCCC4)ccc23)cc(OC(F)F)c1C(=O)N[C@@H]1C[C@@H]1F [Compound 67]
## Task Rank ascending by IC50. Would you mind listing the labels in the order requested?
## Result II, IV, I, III
(II: 15 nM, IV: 79 nM, I: 122 nM, III: 313 nM)

[I] CNc1cc(-c2coc3cc(OCCN4CCCC4)ccc23)cc(OC(F)F)c1C(=O)NC1CC1 [Compound 122]
[II] CN1CC[C@@H]1COc1cc(-c2coc3cc(OCCN4CCCC4)ccc23)cc(OC(F)F)c1C(=O)NC1CC1 [Compound 114]
## Task Looking only at measured IC50, which entry is lower, I or II ? Refer to your chosen item by its label in the answer.
## Result I
(I: 158 nM, II: 5490 nM)

[a] COc1cc(-c2coc3cc(OCCN4CCCC4)ccc23)cc(OC(F)F)c1C(=O)NC1CCCC1N (racemic) [Compound 130]
[b] COc1cc(-c2coc3cc(-c4ccc(C)nn4)ccc23)cc(OC(F)F)c1C(=O)NC1CC1 [Compound 133]
## Task Lab notebook, comparison: a versus b , higher IC50 goes to which? Bench note: the answer is the label of the chosen record.
## Result a
(a: 359 nM, b: 199 nM)

[I] COc1cc(-c2coc3cc(OCCN4CCCC4)ccc23)cc(OC(F)F)c1C(=O)N[C@H]1CCC[C@H]1O [Compound 126]
[II] COc1cc(-c2coc3cc(-c4cn(C)nc4C(F)(F)F)ccc23)cc2c1C(=O)N(CC(F)(F)F)CC2 [Compound 16]
## Task Could you tell me which of I and II has the lower IC50 reading? Your answer should be the label attached to the chosen record.
## Result I

[1] COc1cc(-c2coc3cc(OCCN4CCCC4C(F)(F)F)ccc23)cc(OC(F)F)c1C(=O)N[C@@H]1C[C@@H]1F (some centres unmarked) [Compound 95]
[2] COc1cc(-c2coc3cc(-c4cnn(C5CN(CCC#N)C5)c4)ccc23)cc2c1C(=O)N(CC(F)(F)F)CC2 [Compound 54]
## Task Could you tell me which of these two has the smaller IC50 figure? First: 1 Second: 2 Response format: the label of the selected entry.
## Result 2
